- procedure-text: binders from COS7 lysate, DM2A8 probe, primary screen, torsin A project, cell lysate, small-molecule microarray, fluorescence 635/667 (AID 1065)
- study-conditions: higher = more signal, COS7 lysate expressing mutant human TOR1A
experimental-readout: composite z-score

Before answering, review these 10 worked examples.
C=CCC(OC(C)=O)[C@@H]1[C@@H](N(Cc2cc3ccccc3o2)C(=O)Cc2ccc(OC)cc2)c2cc(OCCCO)ccc2N1C(=O)c1ccc(-c2ccccc2)cc1 (some centres undefined) | 0.459
Cc1cc(C)c(C(O)C2C=CC3C(=O)N(c4ccccc4)C(=O)C3N2Nc2ccccc2)c(C)c1 (centres undefined) | 0.668
CC(=O)NCCCC[C@@H]1NC(=O)[C@H]2C[C@@H](C(=O)NCCCCCN)[C@@H](c3cccc(OCCO)c3)N2C1=O | 0.107
CCN(CC)c1ccc(N2CC=CC34O[C@@H]5/C=C\CCCOC(=O)C5[C@H]3C(=O)N(CCCCCO)[C@@H]4C2=O)cc1 (some centres undefined) | -1.53
CCOC(=O)C1=CC[C@@H](c2ccc(N(CC)CC)cc2)N(S(=O)(=O)c2ccc(C)cc2)[C@H]1c1ccc([N+](=O)[O-])cc1 | -0.346
COc1ccc([Si](C)(C)[C@@H]2[C@@H](CCO)O[C@]3(C(=O)N(Cc4ccccc4)c4ccc(N5C(=O)COc6ccccc65)cc43)[C@H]2C)cc1 | 0.217
[N-]=[N+]=Nc1ccccc1[C@@H]1OC(c2ccc(OCCCO)cc2)=N[C@]1(CCS(=O)(=O)c1ccccc1)C(=O)NCc1ccccc1 | 0.599
C[N+](C)(C)CCCCCCNC(=O)[C@@H]1C[C@@H]2C(=O)NCC(=O)N2[C@@H]1c1cccc(OCCO)c1 | 0.488
COCCCNC(=O)[C@@H]1c2ccccc2C(=O)N(c2ccc(C)cn2)[C@H]1c1ccc(CO)cc1 | -1.72
[N-]=[N+]=NCc1ccccc1C[C@]1(C(=O)NCCN2CCOCC2)COC(c2ccc(OCCCO)cc2)=N1 | 1.25

### Prompt GET /values?readout=composite z-score&item= COC(=O)c1ccc(OC)c(/C=C\CC(CCc2ccccc2)OC(=O)c2ccncc2)c1 (centres undefined)
### Response 0.767

### Prompt Reported composite z-score for COCCOC(=O)N1C(=O)[C@@]2(c3cc(C#CCNC(N)=O)ccc31)[C@H](C(N)=O)[C@H]1C(=O)O[C@H](c3ccccc3)[C@H](c3ccccc3)N1[C@@H]2c1ccc(OCCO)cc1 : what is it?
### Response 0.0525

### Prompt I am curious: what composite z-score value has been reported for NCCCCCCNC(=O)[C@H]1C[C@H]2C(=O)N3CCC[C@H]3C(=O)N2[C@H]1c1ccc(O)cc1 ?
### Response 0.533

### Prompt Which composite z-score is listed for C=CCC(OC(C)=O)[C@@H]1[C@@H](N(Cc2ccc(-c3ccccc3)cc2)C(=O)c2cccc3ccccc23)c2cc(OCCCO)ccc2N1C(=O)c1ccc2ccccc2n1 (some centres undefined) ?
### Response 0.113

* * *

- experimental-target: Pro-neuregulin-1, membrane-bound isoform (Homo sapiens)
- procedure-text: small molecules binding neuregulin-1 protein – biochemical, small-molecule microarray, fluorescence 635/667, psychiatric disease protein project, primary screen (AID 1075);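 also: score combines 667 nm spot fluorescence with signal to noise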
- study-conditions: NRG1 binding, 635 nm fluorescence, higher = more signal
experimental-readout: composite z-score
Reply: number alone, nothing else.

These recorded examples may help you get a feel for the data.
[N-]=[N+]=NCc1ccccc1[C@H]1OC(c2ccc(OCCCO)cc2)=N[C@@]1(Cc1ccccc1N=[N+]=[N-])C(=O)N1CCCCC1 | 1.32
O=C(N1CCOCC1)[C@@]1(CCS(=O)(=O)c2ccccc2)COC(c2ccc(OCCCO)cc2)=N1 | 0.929
C=C(/C(=C/C[C@@H](OC(C)=O)c1ccccc1OCCO)c1cnc2ccccc2c1)C(C)C | 0.179

Okay, now this molecule:
### Prompt What composite z-score value was documented for this molecule, CC(C)C[C@@H]1NC(=O)[C@@]23C(=O)N[C@@H](Cc4ccccc4)C2[C@H](C)[C@@]2(C)O[C@H]2C3/C=C/C/C=C\CNC(=O)[C@@H]2CCCN2C1=O (some centres not stated) ?
### Response -0.492

* * *

- Test system: Noggin (protein binding on small-molecule microarray)
- procedure-text: small molecules binding Noggin protein – biochemical, 635/667 nm fluorescence, primary screen (AID 1095);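 also: score merges 667 nm feature fluorescence with signal to noise over triplicate slides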
- study-conditions: 635 nm fluorescence, higher = more signal
experimental-readout: composite z-score

Here's what some known entries look like.
CCOC(=O)C[C@H]1[C@H](OC(=O)Cc2ccc3c(c2)OCO3)[C@@H](NC(=O)c2ccccc2)c2cc(OCCCO)ccc2N1C(=O)c1ccccc1 | 0.53
OCc1ccc(-c2cc[n+](Cc3cccc(OC(F)(F)F)c3)cc2)cc1 | 0.876

Now examine the next entry.
### Prompt GET /values?readout=composite z-score&item= [N-]=[N+]=NCc1ccccc1C[C@@]1(C(=O)NCCN2CCOCC2)N=C(c2ccc(OCCCO)cc2)O[C@@H]1c1ccccc1CN=[N+]=[N-]
### Response 1.11

* * *

- procedure-text: change in splice reporter luminescence, either direction, cell-based, HEK293, spliceosome inhibition project, primary screen (AID 1101);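 also: HEK293 cells carrying a splicing-competent luciferase reporter gene; test concentration not given here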
- study-conditions: HEK293 splicing luciferase reporter, 24 h, higher = more signal, called active from +8 up or from −8 down
experimental-readout: z-score
No unit in the answer, please; the number alone is enough.

COCCOC(=O)N1C(=O)[C@@]2(c3cc(C#CCC(C(=O)OC)C(=O)OC)ccc31)[C@H](c1ccc(OCCO)cc1)N1[C@H](c3ccccc3)[C@H](c3ccccc3)OC(=O)[C@H]1[C@@H]2C(N)=O | -1.6
[N-]=[N+]=NCc1ccccc1[C@H]1OC(c2ccc(OCCCO)cc2)=N[C@@]1(Cc1ccccc1N=[N+]=[N-])C(=O)N1CCCCC1 | 0.532
N#Cc1ccc(NN2C(C(O)c3ccco3)C=CC3C(=O)N(c4ccccc4)C(=O)C32)cc1 (configuration not stated) | 1.07
CN(C)C(=O)[C@@]1(CCC(=O)OC(C)(C)C)COC(c2ccc(OCCCO)cc2)=N1 | 0.351

### Prompt Fill blank: measured z-score of the molecule O=C1c2ccccc2C(=O)C2CC([C@H]3Oc4ccccc4S(=O)(=O)N4CCC[C@@H]34)=CCC12 (some centres not stated) is ____.
### Response -0.279

### Prompt Please report the recorded z-score for COc1ccc(C(=O)Nc2ccc(CN3C(=O)[C@]4(O[C@H](CCn5cc([C@H](O)c6ccccc6)nn5)[C@@H]([Si](C)(C)c5ccc(OC)cc5)[C@@H]4C)c4ccccc43)cc2)cc1 .
### Response -1.41

### Prompt Find the recorded z-score belonging to COc1cc(C(O)C2C=CC3C(=O)N(C)C(=O)C3N2NC(=O)OC(C)(C)C)cc(OC)c1OC (configuration not stated) and report it.
### Response 1.21

* * *

Reported z-score values are given for each entry in this list.
- experimental-target: Luciferin 4-monooxygenase (Photinus pyralis)
- procedure-text: inhibition of purified Photinus pyralis luciferase – biochemical, luminescence, purified enzyme, 2006 set, primary screen (AID 1141);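 also: cell-free assay with purified firefly luciferase at 100 ng per well in PBS; test concentration not given here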
- study-conditions: purified firefly luciferase, SteadyGlo luminescence, 30 min; higher = more signal, called active from +8 up or from −8 down
Active and inactive are the calls of the source.

CN1C(=O)C2C=CC(C(O)C3CCCCC3)N(N(c3ccccc3)c3ccccc3)C2C1=O (centres undefined) | 0.135 (inactive)

### Prompt z-score for COC(=O)[C@@]1(Cc2ccc(F)cc2)[C@H]2c3cc(C(=O)N(C)C)n(CCSCCO)c3C[C@H]2CN1C(=O)c1ccccc1 ?
### Response 0.0635 (inactive)

### Prompt Name the reported z-score value associated with the compound C=C(C)[C@@H]1CC=C(C(O)C2C=CC3C(=O)N(C4CCCCC4)C(=O)C3N2Nc2ccc(OC)cc2)CC1 (some centres undefined)
### Response -0.392 (inactive)

### Prompt Which value of z-score has been reported for CC(C)NC(=O)[C@@H]1c2ccccc2C(=O)N(Cc2cc(C(F)(F)F)cc(C(F)(F)F)c2)[C@H]1c1ccc(CO)cc1 in the records?
### Response 0.487 (inactive)

* * *

The compounds listed here are annotated with their composite z-score.
- experimental-target: Left-right determination factor 2 (Homo sapiens) (UniProt O00292)
- Sequence (O00292 whole entry, looked up): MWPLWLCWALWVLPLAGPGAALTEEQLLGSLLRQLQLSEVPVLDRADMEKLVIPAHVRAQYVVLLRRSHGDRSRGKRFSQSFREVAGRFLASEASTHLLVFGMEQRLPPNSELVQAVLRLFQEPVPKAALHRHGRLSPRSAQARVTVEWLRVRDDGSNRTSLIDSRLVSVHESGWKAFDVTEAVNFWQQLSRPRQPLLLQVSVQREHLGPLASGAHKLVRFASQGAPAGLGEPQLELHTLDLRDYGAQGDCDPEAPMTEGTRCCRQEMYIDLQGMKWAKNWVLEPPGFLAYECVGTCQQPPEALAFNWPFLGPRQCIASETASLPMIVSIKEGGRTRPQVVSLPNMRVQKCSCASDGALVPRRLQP
- procedure-text: small molecules binding LEFTY2 protein – biochemical, small-molecule microarray, 635 nm fluorescence scan, primary screen (AID 1110)
- study-conditions: higher = more signal
Respond with the number and no other words.

COCCOC(=O)N1C(=O)[C@@]2(c3ccccc31)[C@H](c1ccccc1OCCO)N1[C@H](c3ccccc3)[C@H](c3ccccc3)OC(=O)[C@H]1[C@@H]2C(=O)N1CCc2cc(OC)c(OC)cc2C1 | 0.415
COCCCNC(=O)[C@@]1(Cc2ccccc2CN=[N+]=[N-])N=C(c2ccc(OCCCO)cc2)O[C@H]1c1ccccc1N=[N+]=[N-] | 0.0652

Now consider the entry below.
### Prompt Name the recorded composite z-score for COc1cc2c(cc1OC)CN(C(=O)[C@@H]1[C@H]3C(=O)O[C@H](c4ccccc4)[C@H](c4ccccc4)N3[C@H](c3ccc(OCCO)cc3)[C@@]13C(=O)Nc1ccc(C#CCCO)cc13)CC2 .
### Response 1.01
